Origin of the recorded values: paper PMC4416786

target: mouse P-gp (Mus musculus); test: in vivo; conditions: C57BL/6, mouse
Sequence (P21447 whole entry): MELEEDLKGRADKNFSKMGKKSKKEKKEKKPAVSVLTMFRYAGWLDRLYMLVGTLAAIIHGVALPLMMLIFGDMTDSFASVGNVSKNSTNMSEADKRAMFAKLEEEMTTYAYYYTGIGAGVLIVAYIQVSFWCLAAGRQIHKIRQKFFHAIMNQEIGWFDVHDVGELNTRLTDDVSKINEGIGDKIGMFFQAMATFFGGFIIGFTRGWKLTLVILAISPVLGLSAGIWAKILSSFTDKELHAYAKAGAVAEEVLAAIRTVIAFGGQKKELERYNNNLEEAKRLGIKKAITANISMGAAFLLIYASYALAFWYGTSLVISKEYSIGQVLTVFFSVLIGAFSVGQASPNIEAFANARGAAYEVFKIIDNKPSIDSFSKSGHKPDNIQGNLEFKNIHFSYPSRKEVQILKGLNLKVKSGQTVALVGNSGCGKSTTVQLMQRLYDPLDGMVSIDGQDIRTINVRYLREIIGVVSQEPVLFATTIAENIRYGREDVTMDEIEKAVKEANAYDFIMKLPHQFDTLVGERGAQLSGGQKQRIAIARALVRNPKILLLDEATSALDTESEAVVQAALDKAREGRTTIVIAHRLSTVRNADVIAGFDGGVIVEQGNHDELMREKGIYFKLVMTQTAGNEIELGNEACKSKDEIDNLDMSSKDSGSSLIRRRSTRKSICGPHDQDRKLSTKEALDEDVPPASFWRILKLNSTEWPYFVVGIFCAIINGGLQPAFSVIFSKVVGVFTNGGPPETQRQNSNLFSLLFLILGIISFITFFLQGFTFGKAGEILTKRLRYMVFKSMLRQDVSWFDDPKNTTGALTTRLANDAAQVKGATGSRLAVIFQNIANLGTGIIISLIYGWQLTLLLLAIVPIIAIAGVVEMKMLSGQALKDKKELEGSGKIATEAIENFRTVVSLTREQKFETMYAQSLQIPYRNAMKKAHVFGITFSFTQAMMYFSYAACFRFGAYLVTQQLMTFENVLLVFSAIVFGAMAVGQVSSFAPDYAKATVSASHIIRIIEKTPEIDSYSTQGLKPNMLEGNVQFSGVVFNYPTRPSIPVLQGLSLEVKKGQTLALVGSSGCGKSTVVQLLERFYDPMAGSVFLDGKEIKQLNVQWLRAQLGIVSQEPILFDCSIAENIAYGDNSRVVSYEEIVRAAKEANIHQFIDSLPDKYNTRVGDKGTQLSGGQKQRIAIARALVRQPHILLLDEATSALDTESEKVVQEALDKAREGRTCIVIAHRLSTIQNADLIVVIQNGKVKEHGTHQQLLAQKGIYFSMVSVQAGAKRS
experimental_endpoint: Kp uu at 1 h

Q) Notebook entry, mouse P-gp (Mus musculus) assay: Kp uu at 1 h of CC(=O)O[C@@]12CO[C@@H]1C[C@H](O)[C@@]1(C)C(=O)[C@H](O)C3=C(C)[C@@H](OC(=O)[C@H](O)[C@@H](NC(=O)OC(C)(C)C)c4ccccc4)C[C@@](O)([C@@H](OC(=O)c4ccccc4)[C@H]21)C3(C)C [Docetaxel] = ?
A) 0.002

----------
Entries and their measured fraction unbound follow.
assay: in vitro; details: C57BL/6, mouse, plasma
Please reply with the value in numeric form only.

Q) State the recorded fraction unbound for this entry: C[C@H]1O[C@@H](O[C@H]2[C@@H](O)C[C@H](O[C@H]3[C@@H](O)C[C@H](O[C@H]4CC[C@@]5(C)[C@H](CC[C@@H]6[C@@H]5C[C@@H](O)[C@]5(C)[C@@H](C7=CC(=O)OC7)CC[C@]65O)C4)O[C@@H]3C)O[C@@H]2C)C[C@H](O)[C@@H]1O [Digoxin]
A) 0.594

Kindly review the next compound as well.
Q) State the recorded fraction unbound for this entry: CC(=O)O[C@@]12CO[C@@H]1C[C@H](O)[C@@]1(C)C(=O)[C@H](O)C3=C(C)[C@@H](OC(=O)[C@H](O)[C@@H](NC(=O)OC(C)(C)C)c4ccccc4)C[C@@](O)([C@@H](OC(=O)c4ccccc4)[C@H]21)C3(C)C [Docetaxel]
A) 0.053

----------
test system: human P-gp (hMDR1); test: in vivo; settings: hMDR1 (MDR1 humanized), mouse
experimental_endpoint: Kp uu at 1 h
Please reply with the value in numeric form only.

Q) State the recorded Kp uu at 1 h for this entry: CC(=O)O[C@@]12CO[C@@H]1C[C@H](O)[C@@]1(C)C(=O)[C@H](O)C3=C(C)[C@@H](OC(=O)[C@H](O)[C@@H](NC(=O)OC(C)(C)C)c4ccccc4)C[C@@](O)([C@@H](OC(=O)c4ccccc4)[C@H]21)C3(C)C [Docetaxel]
A) 0.003
